Study target: human CYP11B2 (Homo sapiens)
Sequence (P19099 25-503): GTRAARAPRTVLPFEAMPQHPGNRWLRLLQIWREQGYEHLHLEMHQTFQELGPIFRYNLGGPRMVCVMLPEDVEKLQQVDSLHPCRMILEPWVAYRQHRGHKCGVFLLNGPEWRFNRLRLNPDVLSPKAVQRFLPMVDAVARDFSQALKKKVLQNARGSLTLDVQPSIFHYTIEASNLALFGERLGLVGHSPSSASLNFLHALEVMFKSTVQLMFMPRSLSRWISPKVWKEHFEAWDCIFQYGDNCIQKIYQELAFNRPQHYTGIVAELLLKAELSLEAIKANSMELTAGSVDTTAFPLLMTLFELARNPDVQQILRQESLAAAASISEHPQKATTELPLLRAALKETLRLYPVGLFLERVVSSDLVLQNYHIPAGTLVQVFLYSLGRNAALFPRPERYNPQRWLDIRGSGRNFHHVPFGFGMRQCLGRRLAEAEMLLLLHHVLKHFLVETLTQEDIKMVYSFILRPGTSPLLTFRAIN
Procedure details: G-402 cellular enzyme assay, human CYP11B2 (aldosterone release, HTRF)
Applied conditions: G-402 cells expressing human CYP11B2; 1 μM Deoxycorticosterone
pEC50: −log10 of the molar value. Structures can show the parent of a compound that is named as a salt.
# pEC50 per record follows
Endpoint name: pEC50

* Cc1noc(C)c1S(=O)(=O)NCc1cncc(-c2ccc3c(c2)CCC(=O)N3C)c1 | 6.94
* CCS(=O)(=O)NCc1cncc(-c2cc(Cl)c3c(c2)CCC(=O)N3)c1 | 7.08
* Cc1c(-c2ccc3c(c2)CCC(=O)N3C)cncc1C(C)N (single isomer, unassigned) [Example 240, hydrochloride] | 6.60
* CN1C(=O)CCc2cc(-c3cncc(CNS(=O)(=O)c4cccc(Cl)c4)c3)ccc21 | 6.81
* CC(N[S@+]([O-])C(C)(C)C)c1cncc(-c2ccc3c(c2)CCC(=O)N3C)c1 (single isomer, unassigned) [Example 56] | 7.40
* CC(=O)OCC(=O)Nc1cncc(-c2ccc3c(c2)CCC(=O)N3C)c1 | 6.37
* Cc1noc(C)c1C(=O)NC(C)c1cncc(-c2ccc3c(c2)CCC(=O)N3C)c1 (single isomer, unassigned) | 8.22
* CCC(=O)NC(C)c1cncc(-c2ccc3c(c2)CCC(=O)N3C)c1Cl (single isomer, unassigned) | 7.21
* CN1C(=O)CCc2cc(-c3cncc(CNS(=O)(=O)CC(F)(F)F)c3)ccc21 | 7.21
* Cc1oncc1C(=O)NCc1cncc(-c2ccc3c(c2)CCC(=O)N3C)c1 | 8.70
* CN1C(=O)CCc2cc(-c3cncc(CN)c3Cl)ccc21 [Example 218, hydrochloride] | 7.54
* CN1C(=O)CCc2cc(-c3cncc(O[C@H]4CCN(C(=O)OC(C)(C)C)C4)c3)c(F)cc21 | 7.52
* CCS(=O)(=O)N1CCC(Oc2cncc(-c3ccc4c(c3)CCC(=O)N4C)c2)CC1 | 9.00
* CN1C(=O)CCc2cc(-c3cncc(OC4CCNCC4)c3)ccc21 [Example 62, hydrochloride] | 6.75
* CC(C)(C)OC(=O)N1CC[C@H](Oc2cncc(-c3ccc4c(c3)CCC(=O)N4)c2)C1 | 7.52
* Cc1c(CN[S@+]([O-])C(C)(C)C)cncc1-c1cc2c(cc1F)N(C)C(=O)CC2 | 8.22
* CCS(=O)(=O)NC1(c2cncc(-c3cc4c(cc3F)N(C)C(=O)CC4)c2)CC1 | 8.05
* CN1C(=O)CCc2cc(-c3cncc(OC[C@@H]4CCCN4)c3)ccc21 [Example 66, hydrochloride] | 6.15
* CN1C(=O)CCc2cc(-c3cncc(CN)c3)ccc21 | 7.15
* CCS(=O)(=O)NCc1cncc(-c2cc3c4c(c2)CCC(=O)N4CCC3)c1 | 6.96
* CCS(=O)(=O)N1CC[C@H](Oc2cncc(-c3ccc4c(c3)CCC(=O)N4C)c2)C1 | 8.05
* CCS(=O)(=O)NC(C)c1cncc(-c2cc3c(cc2F)N(C)C(=O)CC3)c1 (racemic) [Example 178] | 8.00
* CN1C(=O)CCc2cc(-c3cncc(O[C@H]4CCN(C(=O)OC(C)(C)C)C4)c3)ccc21 | 7.31
* CCS(=O)(=O)NC1(c2cncc(-c3ccc4c(c3)CCC(=O)N4C)c2)CC1 | 7.66
* CN1C(=O)CCc2cc(-c3cncc(O[C@H]4CCCN(C(=O)OC(C)(C)C)C4)c3)ccc21 | 6.57
* CN1C(=O)CCc2cc(-c3cncc(CNC(=O)c4ncc(C(F)(F)F)cn4)c3)ccc21 | 7.21
* CCC(=O)N1CC[C@@H](Oc2cncc(-c3ccc4c(c3)CCC(=O)N4C)c2)C1 | 7.72
* CCS(=O)(=O)NC(C)c1cncc(-c2ccc3c(c2)CCC(=O)N3C)c1 (single isomer, unassigned) [Example 173] | 7.51
* CC(N)c1cncc(-c2ccc3c(c2)CCC(=O)N3C)c1 (single isomer, unassigned) [Example 64, hydrochloride] | 6.37
* CCC(=O)N1CCC[C@H](Oc2cncc(-c3ccc4c(c3)CCC(=O)N4C)c2)C1 | 6.76
* CCS(=O)(=O)NCc1cncc(-c2ccc3c(c2F)CCC(=O)N3C)c1 | 7.52
